Biological target: T1, biotinylated goat anti-human kappa light chain
T1 construct: positive control of the ELISA
Assay: ELISA, positive control; further: test concentration or dose not given here
measured.quantity: optical density (OD)
Number in OD, nothing else.

Entry 373_H03 (antibody, V domains shown, Group III) VH: EVQLLESGGGLVQPGGSLRLSCAASGFTFSSYSMNWVRQAPGKGLEWVSGINYNSGYKSYADSVKGRFTISRDNSKNTLYLQMNSLRAEDTAVYYCARGANWHDTALDYWGQGTLVTVSS VL: DIQMTQSPSSLSASVGDRVTITCRASQSILSYLNWYQQKPGKAPKLLIYATTSRASGVPSRFSGSGSGTDFTLTISSLQPEDFATYYCQQSYENPLTFGGGTKVEIK ; optical density = 3.22

In plain terms, 367_A12 (antibody, V domains shown, Group III) VH: EVQLLESGGGLVQPGGSLRLSCAASGFTFSSYGMNWVRQAPGKGLEWVSGINYNSGYTSYADSVKGRFTISRDNSKNTLYLQMNSLRAEDTAVYYCARGANWHDTHLDYWGQGTLVTVSS VL: DIQMTQSPSSLSASVGDRVTITCRASQSILSYLNWYQQKPGKAPKLLIYAATSLHSGVPSRFSGSGSGTDFTLTISSLQPEDFATYYCQQSYNNPLTFGGGTKVEIK has a documented optical density of 3.65

Entry 371_H04 (antibody, V domains shown, Group III) VH: EVQLLESGGGLVQPGGSLRLSCAASGFTFSSYGMNWVRQAPGKGLEWVSNINYNGGYTGYADSVKGRFTISRDNSKNTLYLQMNSLRAEDTAVYYCARGANWHDTALDYWGQGTLVTVSS VL: DIQMTQSPSSLSASVGDRVTITCRASQSILTYLNWYQQKPGKAPKLLIYAATSRASGVPSRFSGSGSGTDFTLTISSLQPEDFATYYCQQSYNSPLTFGGGTKVEIK , optical density reported as 3.58

Reported optical density ( 373_C03 (antibody, V domains shown, Group III) VH: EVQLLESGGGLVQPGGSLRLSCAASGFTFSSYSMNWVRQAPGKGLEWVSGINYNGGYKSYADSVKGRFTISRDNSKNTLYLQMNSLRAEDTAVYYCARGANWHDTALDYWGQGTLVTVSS VL: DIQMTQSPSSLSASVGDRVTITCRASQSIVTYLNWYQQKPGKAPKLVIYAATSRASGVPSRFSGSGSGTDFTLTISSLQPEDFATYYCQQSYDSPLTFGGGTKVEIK ) = 3.3

Form field optical density, entry 374_A06 (antibody, V domains shown, Group III) VH: EVQLLESGGGLVQPGGSLRLSCAASGFTFSSYSMNWVRQAPGKGLEWVSSINYNSGYTSYADSVKGRFTISRDNSKNTLYLQMNSLRAEDTAVYYCARGANWHDTHLDYWGQGTLVTVSS VL: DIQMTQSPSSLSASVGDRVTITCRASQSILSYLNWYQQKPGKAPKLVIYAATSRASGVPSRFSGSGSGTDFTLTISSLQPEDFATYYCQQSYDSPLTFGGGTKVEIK : 3
